Values from patent US12209081B2

Target: mouse TRPM3α2 (mTRPM3) ion channel (Mus musculus (Mouse), UniProt J9SQF3)
Sequence (J9SQF3 other isoform, or with tags, fused parts or gaps): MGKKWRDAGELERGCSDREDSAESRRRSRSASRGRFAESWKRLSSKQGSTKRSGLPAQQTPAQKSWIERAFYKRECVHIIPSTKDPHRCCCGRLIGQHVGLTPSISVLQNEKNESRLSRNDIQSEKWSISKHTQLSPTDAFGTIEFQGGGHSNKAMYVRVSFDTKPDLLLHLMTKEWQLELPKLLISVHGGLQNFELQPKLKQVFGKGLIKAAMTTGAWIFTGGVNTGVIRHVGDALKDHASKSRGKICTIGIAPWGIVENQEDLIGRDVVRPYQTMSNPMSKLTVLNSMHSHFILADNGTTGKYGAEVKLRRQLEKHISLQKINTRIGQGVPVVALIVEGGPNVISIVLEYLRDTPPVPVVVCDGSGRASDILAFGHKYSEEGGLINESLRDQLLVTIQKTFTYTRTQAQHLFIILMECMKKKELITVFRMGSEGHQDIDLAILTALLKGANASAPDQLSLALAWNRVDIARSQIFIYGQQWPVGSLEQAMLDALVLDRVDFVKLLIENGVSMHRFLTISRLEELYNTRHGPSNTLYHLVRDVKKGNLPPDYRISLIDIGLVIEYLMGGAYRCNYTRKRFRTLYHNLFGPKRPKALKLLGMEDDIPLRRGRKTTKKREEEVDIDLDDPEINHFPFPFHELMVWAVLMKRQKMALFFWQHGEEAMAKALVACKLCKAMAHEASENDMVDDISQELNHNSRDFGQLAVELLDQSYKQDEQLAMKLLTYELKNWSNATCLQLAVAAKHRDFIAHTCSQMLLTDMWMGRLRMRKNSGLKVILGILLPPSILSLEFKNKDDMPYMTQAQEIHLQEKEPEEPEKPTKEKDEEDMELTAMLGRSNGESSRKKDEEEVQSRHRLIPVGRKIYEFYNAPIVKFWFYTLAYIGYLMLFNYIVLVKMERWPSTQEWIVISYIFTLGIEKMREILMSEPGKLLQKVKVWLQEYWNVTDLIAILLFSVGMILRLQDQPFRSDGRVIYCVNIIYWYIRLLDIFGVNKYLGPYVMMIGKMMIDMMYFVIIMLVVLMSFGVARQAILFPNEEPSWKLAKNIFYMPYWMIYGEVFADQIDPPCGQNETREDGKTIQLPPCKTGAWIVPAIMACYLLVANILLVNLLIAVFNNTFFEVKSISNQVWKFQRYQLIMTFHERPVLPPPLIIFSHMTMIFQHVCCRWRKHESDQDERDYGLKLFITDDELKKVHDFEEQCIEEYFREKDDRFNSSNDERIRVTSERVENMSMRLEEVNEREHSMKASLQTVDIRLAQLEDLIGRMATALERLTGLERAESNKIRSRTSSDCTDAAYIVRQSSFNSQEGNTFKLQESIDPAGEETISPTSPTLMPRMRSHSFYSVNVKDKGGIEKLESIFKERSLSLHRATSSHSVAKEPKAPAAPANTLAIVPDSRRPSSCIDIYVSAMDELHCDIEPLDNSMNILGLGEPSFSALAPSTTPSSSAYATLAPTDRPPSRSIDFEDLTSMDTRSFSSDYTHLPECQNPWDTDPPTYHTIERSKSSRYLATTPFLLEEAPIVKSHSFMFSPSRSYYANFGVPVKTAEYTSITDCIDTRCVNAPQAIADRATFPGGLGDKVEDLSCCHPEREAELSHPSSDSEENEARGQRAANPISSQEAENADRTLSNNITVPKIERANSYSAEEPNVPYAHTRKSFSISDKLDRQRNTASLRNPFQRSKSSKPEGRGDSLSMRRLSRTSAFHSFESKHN
Assay: TRPM3 ion channel driven Ca2+ uptake, Fluo-4 AM assay, mTRPM3alpha2 overexpressing flip-in HEK293 cells stimulated with pregnenolone sulfate
Format: cell-based
Details: PS (50 μM) stimulated, cpds. 500-599
I'd be grateful if you could share measured IC50 for these entries.

Cc1cnc(COc2ccc3oc(C)c(C(=O)NC4CCNCC4(F)F)c3c2)cn1 (single isomer, unassigned) [cpd 554-En 1] | < 1000 nM

Can you give me IC50 for all of these, one by one?
1. Cc1ncsc1COc1ccc2oc(C)c(C(=O)N(C)C3(C(N)=O)COC3)c2c1
2. Cc1ccc(COc2ccc3oc(C)c(C(=O)NC4CCNCC4(F)F)c3c2)nn1 (single isomer, unassigned) [cpd 556-En 2]
3. Cc1oc2ccc(OCc3cncs3)cc2c1C(=O)NC1CCNCC1(F)F (single isomer, unassigned)
4. Cc1oc2ccc(OCc3cccc(=O)n3C)cc2c1C(=O)NC1CCNCC1(F)F (single isomer, unassigned)

Reply text:
1: 1000 to 20000 nM; 2: > 20000 nM; 3: < 1000 nM; 4: 1000 to 20000 nM

* * *

Exercise: state measured pIC50 for each of the compounds provided.
Target: mouse TRPM3α2 (mTRPM3) ion channel (Mus musculus (Mouse), UniProt J9SQF3)
Assay: TRPM3 ion channel driven Ca2+ uptake, Fluo-4 AM assay, mTRPM3alpha2 overexpressing flip-in HEK293 cells stimulated with pregnenolone sulfate
Type: cell-based
Settings: PS (50 μM) stimulated, cpd 001-199
pIC50: −log10 of the molar value.

Some entries whose results are on file:
Cc1oc2ccc(OCc3cccnc3C(F)(F)F)cc2c1C(=O)NC1CCN(CC(F)(F)F)C1 (single isomer, unassigned) | > 6.00
Cc1oc2ccc(OCc3ccccn3)cc2c1C(=O)NC1CCNCC1(F)F (stereo not shown) | > 6.00
COc1ncccc1COc1ccc2oc(C)c(C(=O)NC3CCN(C)CC3)c2c1 | > 6.00
Cc1oc2ccc(OCc3cccnc3C(F)(F)F)cc2c1C(=O)NC1CC2(COC2)C1 | > 6.00
Cc1oc2ccc(OCc3cncc(C(F)(F)F)c3)cc2c1C(=O)NC1CCNCC1(F)F (stereo not shown) | < 4.70
Cc1ncsc1COc1ccc2oc(C)c(C(=O)NC3CNCC(F)(F)C3)c2c1 (single isomer, unassigned) | > 6.00

Give pIC50 for all compounds that follow.
1. Cc1ncsc1COc1ccc2oc(C)c(C(=O)NC3CNCCC3(F)F)c2c1 (single isomer, unassigned)
2. Cc1ncsc1COc1ccc2oc(C)c(C(=O)NC3COCC3O)c2c1 (single isomer, unassigned; dia 1) [162-Dia 1-En1]
3. Cc1oc2ccc(OCc3ccncc3)cc2c1C(=O)O
4. Cc1ncsc1COc1ccc2oc(C)c(C(=O)NC3CCN(CC(F)(F)F)CC3)c2c1
5. Cc1ncsc1COc1ccc2oc(C)c(C(=O)NC3COCC3O)c2c1 (single isomer, unassigned; dia 1) [162-Dia 1-En2]
6. Cc1oc2ccc(OCc3cccnc3C(F)(F)F)cc2c1C(=O)NC1CCOC1 (single isomer, unassigned)
7. Cc1ncsc1COc1ccc2oc(C)c(C(=O)n3ccc(N)n3)c2c1

Reply text:
["> 6.00", "> 6.00", "< 4.70", "> 6.00", "> 6.00", "> 6.00", "< 4.70"]
